Attribute: LC90
# Test system: Artemia salina
# method summary: Toxicity against brine shrimp larvae assessed as mortality after 24 hrs by binocular microscopic analysis
# Format: organism-based
# assay conditions: in vivo, 24 h
parameter measured: LC90

>>> val("CN(C)c1ccc(C2C(C#N)C(=O)N=C3SC(S(N)(=O)=O)=NN32)cc1 (stereo not given)")
"719.42 µg/mL"
>>> val("O=c1[nH]cc(F)c(=O)[nH]1")
"736.49 µg/mL"
>>> val("COc1ccc2c(c1)CCC1=C2N=C2SC(S(N)(=O)=O)=NN2C1c1ccc(Cl)cc1 (stereo not given)")
"788.78 µg/mL"
>>> val("COc1ccc(/C=C2\\C(=O)N=C3SC(S(N)(=O)=O)=NN32)cc1OC")
"765.3 µg/mL"
>>> val("Cc1ccc(/N=N/c2c(N)n3nc(S(N)(=O)=O)sc3nc2=O)cc1")
"706.43 µg/mL"
>>> val("CCOC(=O)C1C(=O)N=C2SC(S(N)(=O)=O)=NN2C1c1ccc(Cl)cc1 (stereo not given)")
"914.63 µg/mL"
>>> val("NS(=O)(=O)C1=NN2CCC(=O)N=C2S1")
"717.7 µg/mL"
>>> val("COc1ccc2c(c1)CCC1=C2N=C2SC(S(N)(=O)=O)=NN2C1c1ccc(OC)c(OC)c1 (stereo not given)")
"819.67 µg/mL"
>>> val("Nc1c(/N=N/c2ccc(Br)cc2)c(=O)nc2sc(S(N)(=O)=O)nn12")
"827.2 µg/mL"
>>> val("CCOC(=O)C1C(=O)N=C2SC(S(N)(=O)=O)=NN2C1c1ccc(OC)c(OC)c1 (stereo not given)")
"796.46 µg/mL"
